# testDetails: Pharmacokinetics of rotigotine in rat after intravenous and subcutaneous administration of POZ conjugates
# Format: in vivo, male Sprague-Dawley rats
# experimentalSetup: male, Sprague-Dawley, subcutaneous, 0.5 mg/kg; rat plasma; IV or SC dosing; read-out: terminal plasma half-life (t½) of rotigotine (converted)
# Procedure: In order to study the pharmacokinetics of the POZ conjugates described herein, in vivo studies were conducted with male Sprague-Dawley rats. Twenty-seven male cannulated Sprague-Dawley rats (300-350 g) were divided into nine groups of 3 animals per group. Groups I-II received a single subcutaneous (SC) dose (right flank) of POZ acetyl rotigotine (as described in Example 6) at equivalent doses of 1.6 and 6.4 mg/kg. […]
recordedMetric: half-life (h)

- compound: "CCCN(CCc1cccs1)[C@H]1CCc2c(O)cccc2C1 [Rotigotine, reference compound]"
  recordedMetric: "half-life"
  unitsText: "h"
  numericReadout: 2.8

These entries and their values trace back to patent US10426768B2.
